- System: MCF7
- assay text: Antiproliferative activity against human MCF7 cells assessed as reduction in cell viability after 24 hrs by CCK-8 assay
- Type: functional, cell-based
- experimental setup: MCF7, 24 h
pIC50 reference
Note: pIC50 values are expressed as the negative base-10 logarithm of concentration in M.

# annotated cases, reported pIC50 shown
[[record]]
molecule = "COc1cc(/C=C\\c2cccc(OS(N)(=O)=O)c2)cc(OC)c1OC"
assay_target = "MCF7"
quantitative_result = 4.95

[[record]]
molecule = "COc1ccc(/C=C\\c2cc(OC)c(OC)c(OC)c2)cc1O"
assay_target = "MCF7"
quantitative_result = 6.85

[[record]]
molecule = "COc1ccc(CCc2cc(OC)c(OC)c(OC)c2)cc1NS(N)(=O)=O"
assay_target = "MCF7"
quantitative_result = 4.70

[[record]]
molecule = "COc1ccc(/C=C\\c2cc(OC)c(OC)c(OC)c2)cc1OS(N)(=O)=O"
assay_target = "MCF7"
quantitative_result = 6.96

[[record]]
molecule = "COc1ccc(/C=C/c2cc(OC)c(OC)c(OC)c2)cc1NS(N)(=O)=O"
assay_target = "MCF7"
quantitative_result = 4.77

[[record]]
molecule = "C[C@]12CC[C@@H]3c4ccc(OS(N)(=O)=O)cc4CC[C@H]3[C@@H]1CCC2=O [EMATE]"
assay_target = "MCF7"
quantitative_result = 7.15

[[record]]
molecule = "COc1cc(/C=C/c2ccc(OC(F)F)c(OS(N)(=O)=O)c2)cc(OC)c1OC"
assay_target = "MCF7"
quantitative_result = 4.86


Okay, next one:
What reported pIC50 corresponds to "COc1ccc(/C=C/c2cc(OC)c(OC)c(OC)c2)cc1OS(N)(=O)=O" on MCF7?
5.26

----------
- assay target: Tubulin (Sus scrofa, UniProt P02554+P02550)
- assay text: Inhibition of pig brain tubulin polymerization by spectrophotometric method
- Type: tissue-based
quantity name: IC50 (µM)
Give the value in µM but do not write µM after it.

# annotated cases, reported IC50 shown
[[record]]
compound = "C[C@]12CC[C@@H]3c4ccc(OS(N)(=O)=O)cc4CC[C@H]3[C@@H]1CCC2=O [EMATE]"
quantitative_result = 25.9

[[record]]
compound = "COc1ccc(/C=C\\c2cc(OC)c(OC)c(OC)c2)cc1OS(=O)(=O)N(C)C"
quantitative_result = 12.5

[[record]]
compound = "COc1ccc(/C=C\\c2cc(OC)c(OC)c(OC)c2)cc1OS(N)(=O)=O"
quantitative_result = 6.6


Okay, next one:
What IC50 value was documented for this compound, "COc1ccc(/C=C/c2cc(OC)c(OC)c(OC)c2)cc1OS(N)(=O)=O" ?
55.7

----------
IC50 reference
- assay text: Inhibition of Arylsulfatase (unknown origin) using potassium p-nitrophenyl sulfate as substrate incubated for 5 mins
- Design: species or system Homo sapiens

# annotated cases, reported IC50 shown
[[record]]
chemical_structure = "COc1cc(/C=C\\c2cccc(OS(N)(=O)=O)c2)cc(OC)c1OC"
result = "0.47 µM"

[[record]]
chemical_structure = "COc1ccc(/C=C\\c2cc(OC)c(OC)c(OC)c2)cc1OS(=O)(=O)N(C)C"
result = "> 100 µM"


What IC50 value was documented for this compound, "COc1cc(/C=C\c2ccc(OC(F)F)c(OS(N)(=O)=O)c2)cc(OC)c1OC" ?
4.64 µM

What IC50 value was documented for this compound, "COc1ccc(/C=C\c2cc(OC)c(OC)c(OC)c2)cc1OS(N)(=O)=O" ?
6.16 µM

What IC50 value was documented for this compound, "CNS(=O)(=O)Oc1cc(/C=C\c2cc(OC)c(OC)c(OC)c2)ccc1OC" ?
> 100 µM

What IC50 value was documented for this compound, "COc1ccc(CCc2cc(OC)c(OC)c(OC)c2)cc1OS(N)(=O)=O" ?
> 100 µM
